Attribution: patent US20200207859A1

Reported cell killing Span, SUP-B15 (ALL) cells values for the following binders.
tested.target: CD74 (human), P04233
Sequence (P04233 whole entry): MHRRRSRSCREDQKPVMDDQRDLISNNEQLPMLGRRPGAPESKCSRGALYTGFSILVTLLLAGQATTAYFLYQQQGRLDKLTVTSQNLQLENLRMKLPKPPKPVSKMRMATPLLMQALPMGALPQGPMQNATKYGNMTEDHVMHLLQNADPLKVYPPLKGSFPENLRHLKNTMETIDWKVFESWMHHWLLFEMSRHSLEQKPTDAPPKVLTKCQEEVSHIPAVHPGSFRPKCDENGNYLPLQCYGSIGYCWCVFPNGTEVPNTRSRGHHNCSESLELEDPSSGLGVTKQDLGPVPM
assay.name: cell-based or functional assay
property.label: cell killing Span, SUP-B15 (ALL) cells (%)

binder | endpoint.unit | measured.value
Conjugate C (anti-CD74 IgG-val-cit-PAB-hemiasterlin conjugate) (antibody, V domains shown, here or on the partner: modified amino acid residue 30 (pAMF) according to Example 2, position not stated for this conjugate, linked to val-cit-PAB-hemiasterlin) VH: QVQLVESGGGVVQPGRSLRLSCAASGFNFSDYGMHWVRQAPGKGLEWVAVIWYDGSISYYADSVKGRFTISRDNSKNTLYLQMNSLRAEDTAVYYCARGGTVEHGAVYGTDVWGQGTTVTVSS VL: DIQMTQSPSSVSASVGDRVTITCRASQGIGSWLAWYQQKPGKAPKLLIYAADRLQSGVPSRFSGSGSGTDFTLTISSLQPEDFATYYCQQYHTYPLTFGGGTKVEIK | % | 68
Conjugate B (anti-CD74 IgG-PEG4-maytansine conjugate) (antibody, V domains shown, here or on the partner: modified amino acid residue 30 (pAMF) according to Example 2, position not stated for this conjugate, linked to a PEG4-maytansine linker-payload) VH: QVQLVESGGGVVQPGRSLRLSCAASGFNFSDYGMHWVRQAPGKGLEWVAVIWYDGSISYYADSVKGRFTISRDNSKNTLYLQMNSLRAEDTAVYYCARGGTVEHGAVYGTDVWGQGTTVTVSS VL: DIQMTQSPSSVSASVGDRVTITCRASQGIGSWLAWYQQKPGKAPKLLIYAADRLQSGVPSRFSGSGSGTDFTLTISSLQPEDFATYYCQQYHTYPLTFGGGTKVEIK | % | 72
Conjugate E (anti-CD74 IgG-PEG4-MMAF conjugate) (antibody, V domains shown, here or on the partner: modified amino acid residue 30 (pAMF) according to Example 2, position not stated for this conjugate, linked to PEG4-MMAF) VH: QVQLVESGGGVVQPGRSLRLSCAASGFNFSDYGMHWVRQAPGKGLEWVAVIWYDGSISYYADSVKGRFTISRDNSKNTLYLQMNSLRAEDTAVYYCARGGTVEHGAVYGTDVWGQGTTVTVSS VL: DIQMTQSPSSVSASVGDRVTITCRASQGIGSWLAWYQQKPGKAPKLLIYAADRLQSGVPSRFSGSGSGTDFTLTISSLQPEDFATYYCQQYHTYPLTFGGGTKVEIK | % | 58
Conjugate F (anti-CD74 IgG-PEG4-MMAE conjugate) (antibody, V domains shown, here or on the partner: modified amino acid residue 30 (pAMF) according to Example 2, position not stated for this conjugate, linked to PEG4-MMAE) VH: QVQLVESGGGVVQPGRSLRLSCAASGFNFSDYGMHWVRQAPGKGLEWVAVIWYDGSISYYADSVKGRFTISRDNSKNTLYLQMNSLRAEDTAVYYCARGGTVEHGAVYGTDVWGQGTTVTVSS VL: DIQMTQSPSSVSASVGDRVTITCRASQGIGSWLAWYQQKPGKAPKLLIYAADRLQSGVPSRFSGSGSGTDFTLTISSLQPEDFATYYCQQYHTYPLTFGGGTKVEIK | % | 65
